biological target: Cj1427 (Campylobacter jejuni, UniProt Q0P8I7)
Sequence (Q0P8I7 whole entry): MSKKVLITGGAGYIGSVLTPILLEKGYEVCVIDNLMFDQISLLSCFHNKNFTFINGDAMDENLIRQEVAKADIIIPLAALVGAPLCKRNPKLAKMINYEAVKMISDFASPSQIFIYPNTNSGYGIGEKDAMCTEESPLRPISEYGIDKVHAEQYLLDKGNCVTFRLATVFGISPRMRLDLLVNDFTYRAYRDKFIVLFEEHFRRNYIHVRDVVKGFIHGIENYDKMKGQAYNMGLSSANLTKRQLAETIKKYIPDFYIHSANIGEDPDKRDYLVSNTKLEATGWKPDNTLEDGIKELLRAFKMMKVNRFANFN
measuredProperty: pKd
One number for each entry, as −log10 of the molar value.

Prompt line: For the molecule shown here, O=C(O)CCC(=O)C(=O)O [α-ketoglutarate] , give the reported pKd.
Response line: 3.78
